Where do these numbers come from? They come from PubChem BioAssay (Tox21).

TARGET_DESC: Cytochrome P450 1A2 (Homo sapiens)
PROCEDURE_SUMMARY: Cytochrome P450 Family 1 Subfamily A Member 2 (CYP1A2) small molecule antagonists: luciferase reporter qHTS assay (AID 1671199); note: nearly all actives have a fitted effect of over 50% in size
TEST_CONDITIONS: P450-Glo CYP1A2 enzyme, luciferin luminescence, 1 h; series mostly up to 115 µM
Records with an inconclusive call do not appear. Activity calls are given as the source filed them. Calls come from the whole dose curve; as a rule, active = well fitted inhibition curve with a large enough effect in the repeat runs; inconclusive = weak or mixed curves; inactive = no such curve, though single readings can be large or run the other way.
Classes used: active, inactive

INSERT INTO measurements (molecule, label) VALUES
  ('Brc1ccccn1', 'inactive'),
  ('O=C(O)Cc1ccc(OCCNC[C@H](O)c2ccccc2)cc1', 'inactive'),
  ('CN(Cc1cc(Br)cc(Br)c1N)C1CCCCC1', 'active'),
  ('CN1CN(C)CN(C)C1', 'inactive'),
  ('CC1(C)C(=O)N(Br)C(=O)N1Br', 'inactive'),
  ('CCCCCCCC(=O)OCC', 'inactive'),
  ('S=P(N1CC1)(N1CC1)N1CC1', 'active'),
  ('CC(NCCC(c1ccccc1)c1ccccc1)c1ccccc1 (stereo unspecified)', 'inactive'),
  ('CNC(=S)NN', 'active'),
  ('CCCCCCC(C)OC(=O)COc1nc(F)c(Cl)c(N)c1Cl (stereo unspecified)', 'active'),
  ('Cc1cc(C)c(C=O)c(C)c1', 'inactive'),
  ('C/C=C/c1ccc(OC)c(OC)c1', 'active'),
  ('Cc1cncc(C)c1', 'inactive'),
  ('CCO[Si](C)(C)OCC', 'inactive'),
  ('C=CC(=C)CC/C=C(\C)CCC=C(C)C', 'active'),
  ('Cc1ccc(O)cn1', 'inactive'),
  ('C/C=C/C(=O)C1=C(C)CCCC1(C)C', 'inactive'),
  ('CCCCOc1ccc(C(=O)CCN2CCCCC2)cc1', 'inactive'),
  ('COc1ccc2sc(C(=O)Nc3nnn[nH]3)c(OC(C)C)c2c1', 'inactive'),
  ('CCN(CC)c1cccc(C)c1', 'inactive'),
  ('OCCN1CN(CCO)CN(CCO)C1', 'inactive'),
  ('O=c1cccc[nH]1', 'inactive'),
  ('N#CSCSc1nc2ccccc2s1', 'active'),
  ('OCCC(O)CO (stereo unspecified)', 'inactive'),
  ('Cc1ccc(-n2[nH]c(C)c(N=Nc3cccc(-c4cccc(C(=O)O)c4)c3O)c2=O)cc1C', 'inactive'),
  ('O=C1OC(=O)c2ccc3c4c(ccc1c24)C(=O)OC3=O', 'inactive'),
  ('C=CC(=O)OCC(O)COc1ccccc1 (stereo unspecified)', 'active'),
  ('Cc1cccc(C)n1', 'active'),
  ('CC(C(O)c1ccccc1)N(C)CCOC(c1ccccc1)c1ccccc1 (stereo unspecified)', 'inactive'),
  ('C[Si](C)O[Si](C)C', 'inactive'),
  ('Cc1cc(=O)[nH]c(=O)[nH]1', 'inactive');

* * *

PROCEDURE_SUMMARY: Caspase-3/7 induction in CHO-K1 cells by small molecules, qHTS cell viability counter screen (AID 1346979); note: nearly all actives have a fitted effect of over 35% in size; note: potency is the fitted concentration of half-maximal effect
TEST_CONDITIONS: CellTiter-Fluor fluorescence, 17 h; series mostly up to 92.4 µM
Results filed as inconclusive are left out. Calls of active or inactive are those of the source. The call rests on the fitted dose curve; in most records, active means well fitted cell-killing curve with a large enough effect in the repeat runs; inconclusive means weak or mixed curves, or effect the other way; inactive means no such curve, though single readings can be large or run the other way.
PARAMETER: Potency

INSERT INTO results (compound, measured_result) VALUES
  ('CC(=O)OC(OC(C)=O)c1ccc([N+](=O)[O-])o1', '15.6 µM (active)'),
  ('ClC/C=C\CCl', 'inactive'),
  ('Clc1ccccc1CN1CCc2sccc2C1', 'inactive'),
  ('O=C(Nc1ccc(Cl)cc1)Nc1ccc(Cl)c(C(F)(F)F)c1', '11.9 µM (active)'),
  ('Oc1cc2ccccc2cc1O', 'inactive'),
  ('CCc1c(Br)c(Br)c(Br)c(Br)c1Br', 'inactive'),
  ('CC(C)(C)c1cc(/C=C2\SC(=N)NC2=O)cc(C(C)(C)C)c1O', '54.5 µM (active)'),
  ('C/C=C/c1ccc(OC)c(OC)c1', 'inactive'),
  ('CCCCCCCCC(C)=O', 'inactive'),
  ('Cc1cc(Nc2ccc(O)cc2)ccc1N', '27.2 µM (active)'),
  ('O=C[C@H](O)[C@H](O)[C@H](O)CO', 'inactive'),
  ('C=CC(=O)OCC(O)COc1ccccc1 (stereo not drawn)', '61.1 µM (active)'),
  ('CCOC(=O)C1=C(C)NC(C)=C(C(=O)OCC)C1c1ccccc1/C=C/C(=O)OC(C)(C)C', '33.5 µM (active)');

* * *

PROCEDURE_SUMMARY: qHTS assay to test for compound auto fluorescence at 460 nm (blue) in HEK293 cells (AID 720678); note: % is set by controls: 0 for no effect and ±100 for the full control effect
TEST_CONDITIONS: blue autofluorescence 405/460 nm; series mostly up to 91.3 µM
The source made the active and inactive calls. Calls follow the shape of the dose curve; as a rule, active = well fitted curve in the direction sought with a large enough effect in the repeat runs; inconclusive = weak or mixed curves; inactive = flat fitted curve, though single readings scatter.
PARAMETER: fluorescence, % of triamterene

INSERT INTO assay_data (molecule, parameter, measured_result) VALUES
  ('CC(C)c1ccc(O)c(C(C)C)c1', 'fluorescence, % of triamterene', 'inactive'),
  ('Cc1cn[nH]c1', 'fluorescence, % of triamterene', 'inactive'),
  ('CCC(=O)OCCc1ccccc1', 'fluorescence, % of triamterene', 'inactive'),
  ('CCCCCCCCCCCC(=O)N(CC)CC', 'fluorescence, % of triamterene', 'inactive'),
  ('CCN1CCN(c2cc(-c3ccc(F)cc3)c3c(n2)CCCCCC3)CC1', 'fluorescence, % of triamterene', 'inactive'),
  ('O=C(NO)c1ccccc1', 'fluorescence, % of triamterene', 'inactive'),
  ('CSc1ccc2c(c1)N(CCC1CCCCN1C)c1ccccc1S2 (stereo not drawn)', 'fluorescence, % of triamterene', 'inactive'),
  ('Clc1ccc(C(Cn2ccnc2)OCc2c(Cl)cccc2Cl)c(Cl)c1 (stereo not drawn)', 'fluorescence, % of triamterene', '-0.277% [at 18.6 µM] (inactive)'),
  ('CCCCCCCC/C=C\CCCCCCCC(=O)OCCOC(=O)CCCCCCC/C=C\CCCCCCCC', 'fluorescence, % of triamterene', 'inactive'),
  ('C[C@@H]1CC[C@H]2C(C)(C)[C@H]3C[C@@]12CC[C@@]3(C)O', 'fluorescence, % of triamterene', 'inactive'),
  ('O=C(O)c1cccc(Cl)n1', 'fluorescence, % of triamterene', 'inactive'),
  ('C[C@@]12C(=O)OC(=O)[C@]1(C)C1CCC2O1', 'fluorescence, % of triamterene', '-0.421% [at 18.6 µM] (inactive)'),
  ('Clc1ccc(C(Cn2ccnc2)OCc2ccsc2Cl)c(Cl)c1 (stereo not drawn)', 'fluorescence, % of triamterene', 'inactive');

* * *

PROCEDURE_SUMMARY: qHTS assay to test for compound auto fluorescence at 590 nm (red) in HEK293 cell free culture (AID 720683); note: % is set by controls: 0 for no effect and ±100 for the full control effect
TEST_CONDITIONS: cell-free medium autofluorescence, Ex540/Em590 red; series mostly up to 91.3 µM
Active and inactive are the calls of the source. Calls come from the whole dose curve; as a rule, active = well fitted curve in the direction sought with a large enough effect in the repeat runs; inconclusive = weak or mixed curves; inactive = flat fitted curve, though single readings scatter.
PARAMETER: fluorescence, % of fluorescent control

INSERT INTO assay_data (molecule, parameter, measured_result) VALUES
  ('c1ccc(Nc2cccc3ccccc23)cc1', 'fluorescence, % of fluorescent control', 'inactive'),
  ('C=C1C(C)(C)[C@@]2(Cl)C(Cl)[C@]1(Cl)C(Cl)(Cl)C2(Cl)Cl (stereo not given in full)', 'fluorescence, % of fluorescent control', 'inactive'),
  ('Cc1c(C)n(Cc2ccccc2)c2ccc(C(=O)OCCN(C)C)cc12', 'fluorescence, % of fluorescent control', 'inactive'),
  ('C/C=C/C(=O)Oc1c(CCCCCC(C)C)cc([N+](=O)[O-])cc1[N+](=O)[O-]', 'fluorescence, % of fluorescent control', 'inactive'),
  ('COc1cc(C(C)C)c2c(c1)S(=O)(=O)N(COc1cc(=O)n3cccc(OCCN4CCCCC4)c3n1)C2=O', 'fluorescence, % of fluorescent control', '0.355% [at 18.6 µM] (inactive)');

* * *

PROCEDURE_SUMMARY: qHTS RealTime-Glo MT Cell Viability Assay in HepG2 cells - 24 hour (AID 1224867); note: nearly all actives have a fitted effect of over 50% in size
TEST_CONDITIONS: RealTime-Glo luminescence; series mostly up to 76.8 µM
Text: U.S. Tox21 Program National Center for Advancing Translational Sciences [NCATS] NIH Chemical Genomics Center [NCGC] U.S. Environmental Protection Agency [EPA] National Institutes of Environmental Health Sciences [NIEHS] National Toxicology Program [NTP] U.S. Food and Drug Administration [FDA] Tox21 Assay Overview: Measure of cell viability is critical in the cell-base assay. Analysis of cell viability is necessary for the characterization of cell responses to cytotoxic drugs and environmental stress. […]
Results filed as inconclusive are left out. Active and inactive are the calls of the source. Calls follow the shape of the dose curve; as a rule, active = well fitted cell-killing curve with a large enough effect in the repeat runs; inconclusive = weak or mixed curves; inactive = flat fitted curve, though single readings scatter.
Classes used: active, inactive

INSERT INTO assay_data (compound, label) VALUES
  ('CCCCCCCCCCCCN(CCO)CCO', 'active'),
  ('c1cc(OCC2CO2)cc(OCC2CO2)c1 (stereo not given)', 'inactive'),
  ('Cc1cnccn1', 'inactive'),
  ('O=C1NC2CCCCN2C12CCN(CCCN1c3ccccc3CCc3ccc(Cl)cc31)CC2 (stereo not given)', 'active'),
  ('Cc1cccc(C)n1', 'inactive'),
  ('O=C(O)c1cccc(Cl)n1', 'inactive'),
  ('CN(C)c1ccc(N=NS(=O)(=O)O)cc1', 'inactive'),
  ('CC(NCCC(c1ccccc1)c1ccccc1)c1ccccc1 (stereo not given)', 'active'),
  ('CCc1cccc(CC)c1N(COC)C(=O)CS(=O)(=O)O', 'inactive'),
  ('CC1CCCCC1', 'inactive'),
  ('CCOB(OCC)OCC', 'inactive'),
  ('CCCCCCCOC(=O)c1ccccc1C(=O)OCCCCCCC', 'inactive'),
  ('CCOC(/C=C(\C)CCC=C(C)C)OCC', 'inactive'),
  ('CN1CN(C)CN(C)C1', 'inactive'),
  ('OCCCc1cccnc1', 'inactive');
